Data origin: ChEMBL document CHEMBL1132920

Target: Beta-1 adrenergic receptor (Rattus norvegicus, UniProt P18090)
Sequence (P18090 whole entry): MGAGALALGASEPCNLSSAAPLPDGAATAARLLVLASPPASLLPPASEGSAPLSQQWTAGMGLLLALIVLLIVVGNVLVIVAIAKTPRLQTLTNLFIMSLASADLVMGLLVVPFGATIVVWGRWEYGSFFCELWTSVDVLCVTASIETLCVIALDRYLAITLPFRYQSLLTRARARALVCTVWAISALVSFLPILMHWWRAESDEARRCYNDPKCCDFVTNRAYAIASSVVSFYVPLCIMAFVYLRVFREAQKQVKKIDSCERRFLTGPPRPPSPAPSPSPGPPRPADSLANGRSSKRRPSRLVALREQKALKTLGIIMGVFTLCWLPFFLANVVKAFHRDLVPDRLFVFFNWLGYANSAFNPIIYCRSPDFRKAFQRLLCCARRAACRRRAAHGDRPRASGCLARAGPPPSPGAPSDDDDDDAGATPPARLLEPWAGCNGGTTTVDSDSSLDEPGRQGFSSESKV
pKi: −log10 of the molar value.
// pKi lookup, one value per entry
Reported Metric: pKi

* NCCc1cc(O)c(O)cc1F | 4.39
* CNC[C@H](O)c1ccc(O)c(O)c1 (racemic) [EPINEPHRINE] | 5.68
* NCCc1ccc(O)c(O)c1F | 4.72

* * *

Listing: Ki of selected compounds
Target: Adrenergic receptor alpha-2 (Rattus norvegicus, UniProt P22086+P19328+P22909)
Test Method Notes: Binding of [3H]clonidine to alpha-2-adrenergic receptor of rat cerebral cortical membranes
Format: cell membranes, Membrane
Reported Metric: Ki (nM)

* CNC[C@H](O)c1cc(O)c(O)cc1F | 13
* NC[C@H](O)c1ccc(O)c(O)c1F | 550
* CNC[C@@H](O)c1cc(O)c(O)cc1F | 78
* CNCC(O)c1cc(O)c(O)cc1F (racemic) | 14
* NCC(O)c1ccc(O)c(O)c1F (racemic) | 600
* NCCc1ccc(O)c(O)c1F | 120
* NCCc1cc(O)c(O)cc1F | 40
* NC[C@@H](O)c1ccc(O)c(O)c1F | 320

* * *

Target: Adrenergic receptor alpha-1 (Rattus norvegicus, UniProt P15823+P23944+P43140)
Test Method Notes: Binding of [3H]prazosin to alpha-1 adrenergic receptor of rat cerebral cortical membranes
Type: cell membranes, Membrane
Reported Metric: Ki

• NCCc1cc(O)c(O)cc1F = 6 µM
• NCC(O)c1ccc(O)c(O)c1F (racemic) = ~ 50 uM
• NC[C@H](O)c1cc(O)c(O)cc1F = 3.7 µM
• CNC[C@@H](O)c1ccc(O)c(O)c1F = ~ 40 uM
• NCCc1ccc(O)c(O)c1F = 16 µM
• NC[C@@H](O)c1cc(O)c(O)cc1F = ~ 12 uM
• NC[C@H](O)c1ccc(O)c(O)c1F = ~ 25 uM
• NCCc1ccc(O)c(O)c1 [DOPAMINE] = 14 µM

* * *

Here we list compounds with their recorded Ki when tested on Beta-1 adrenergic receptor (Rattus norvegicus, UniProt P18090).
Reported Metric: Ki

• CNC[C@H](O)c1cc(O)c(O)cc1F = ~100 µM
• CNCC(O)c1cc(O)c(O)cc1F (racemic) = ~140 µM
• CNC[C@@H](O)c1cc(O)c(O)cc1F = ~400 µM
